Target: T1, human DLL3 antigen (human, UniProt Q9NYJ7 27-492, limits assumed)
T1 construct: also called immobilized human DLL3; recombinant human DLL3
T1 sequence (looked up): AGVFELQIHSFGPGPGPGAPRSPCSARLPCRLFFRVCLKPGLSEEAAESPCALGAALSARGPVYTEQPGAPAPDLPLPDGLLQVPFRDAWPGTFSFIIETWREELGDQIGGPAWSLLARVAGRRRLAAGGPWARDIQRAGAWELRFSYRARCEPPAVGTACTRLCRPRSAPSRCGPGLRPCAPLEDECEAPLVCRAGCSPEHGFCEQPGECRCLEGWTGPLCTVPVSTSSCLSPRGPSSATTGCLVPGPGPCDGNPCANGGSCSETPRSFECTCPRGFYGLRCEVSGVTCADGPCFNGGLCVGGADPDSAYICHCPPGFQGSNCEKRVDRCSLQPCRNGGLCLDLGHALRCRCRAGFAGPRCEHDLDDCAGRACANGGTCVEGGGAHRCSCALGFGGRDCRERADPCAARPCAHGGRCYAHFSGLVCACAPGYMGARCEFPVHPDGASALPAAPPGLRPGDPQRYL
Assay: ELISA or flow cytometry screen
measurement-name: binding result

SC16.73 (antibody, V domains shown, murine mAb) VH: QVQLQQSGAELMKPGASVKISCKANGYTFSSYWIEWLRQRPGHGLEWIGEILPGSDNSNYNEKFKGKATFTADTSSNTAYMQLSSLTSEESAVYYCTRGLRRDGSYYYVMEHWGQGTSVTVSS VL: DIQMTQSPSSLSASLGERVSLTCRASQDIGYSLNWLQQEPDGTIKRLIYATSSLDSGVPKRFSGSRSGSDYSLTISSLESEDFVDYYCLQYASSPWTFGGGTKLEIK    binds
SC16.135 (antibody, V domains shown, murine mAb) VH: QVQLQQSGAELVRPGTSVKVSCKASGYAFTNYLIEWVKQRPGQGLEWIGVINPGSGGTNSNEKFKAKATLTADKSSSTAYMQLSSLTSADSAVYFCARSDYDYAFYAMDYWGQGTSVTVSS VL: DIKMTQSPSSMYASLGERVTITCKASQDINRYLSWFQQKPGKSPKTLIYRANRLVDGVPSRFSGSGSGQDYSLTISSLEYEDMGIYYCLQYDEFPFTFGSGTKLEIK    binds
SC16.21 (antibody, V domains shown, murine mAb) VH: QVQLQQSGPELVKPGASVKISCKASGYAFSSSWMNWVKQRPGKGLEWIGRIYPGDGDTNYNGKFKGKATLTADKSSSTAYMQLSSLTSEDSAVYFCAMGIYNYDGSRYYSMDYWGQGTSVTVSS VL: DIVMTQSPSSLAMSVGQKVTMSCKSSQSLLNSSNQKNYLAWYQQEPGQSPKLLVSFASTRESGVPDRFTGSGSGTDFTLTISGVQAEDLAVYYCQQHYSIPLTFGAGTKLELK    binds
